The next entries give measured pKi for UniProtKB P61813.
By convention, pKi is the negative base-10 log of a molar concentration.

// recorded pKi for CNC(=O)COCC(=O)NCCCCCCCNC(=O)COCC(=O)Nc1ccc([C@H](CCN2C3CCC2CC(n2c(C)nnc2C(C)C)C3)NC(=O)C2CCC(F)(F)CC2)cc1 (some centres not stated) : 6.82

// recorded pKi for Cc1nnc(C(C)C)n1C1CC2CCC(C1)N2CC[C@H](NC(=O)C1CCC(F)(F)CC1)c1ccc(N)cc1 (some centres not stated) : 7.82

----------
- target_or_system: C-C chemokine receptor type 5 (Homo sapiens, UniProt P51681)
- Sequence (P51681 whole entry): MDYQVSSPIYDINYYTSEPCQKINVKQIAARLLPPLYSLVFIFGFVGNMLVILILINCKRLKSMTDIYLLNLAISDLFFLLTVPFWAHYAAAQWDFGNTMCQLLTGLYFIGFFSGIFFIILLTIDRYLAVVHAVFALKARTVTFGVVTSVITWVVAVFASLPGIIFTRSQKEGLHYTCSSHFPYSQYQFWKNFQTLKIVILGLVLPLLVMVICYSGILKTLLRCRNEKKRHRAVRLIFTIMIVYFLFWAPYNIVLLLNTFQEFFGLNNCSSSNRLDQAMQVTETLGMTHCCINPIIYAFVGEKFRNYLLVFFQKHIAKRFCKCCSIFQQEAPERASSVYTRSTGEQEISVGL
- test_description: Antagonist activity at CCR5 in Gqi5 transfected human MOLT4 cells assessed as inhibition of RANTES-stimulated Ca2+ influx preincubated for 15 mins followed by […]
quantity_kind: IC50 (nM)
Return type: number; implicit unit nM.

So the reported IC50 for Cc1nnc(C(C)C)n1C1CC2CCC(C1)N2CC[C@H](NC(=O)C1CCC(F)(F)CC1)c1ccc(N)cc1 (some centres undefined) , on C-C chemokine receptor type 5 (Homo sapiens, UniProt P51681), turned out to be 14.2

So the reported IC50 for Cc1nnc(C(C)C)n1C1CC2CCC(C1)N2CC[C@H](NC(=O)C1CCC(F)(F)CC1)c1ccc(NC(=O)OC(C)(C)C)cc1 (some centres undefined) , on C-C chemokine receptor type 5 (Homo sapiens, UniProt P51681), turned out to be 1570

So the reported IC50 for CNC(=O)COCC(=O)NCCCCCCCNC(=O)COCC(=O)Nc1ccc([C@H](CCN2C3CCC2CC(n2c(C)nnc2C(C)C)C3)NC(=O)C2CCC(F)(F)CC2)cc1 (some centres undefined) , on C-C chemokine receptor type 5 (Homo sapiens, UniProt P51681), turned out to be 622

So the reported IC50 for CNC(=O)COCC(=O)Nc1ccc([C@H](CCN2C3CCC2CC(n2c(C)nnc2C(C)C)C3)NC(=O)C2CCC(F)(F)CC2)cc1 (some centres undefined) , on C-C chemokine receptor type 5 (Homo sapiens, UniProt P51681), turned out to be 7910

Reference source for all entries: ChEMBL document CHEMBL3217593
